System: HCT-15 colon
Experiment: NCI tumour cell line growth inhibition, 48 h
recorded-endpoint: TGI

Sample records with TGI:
{"compound": "CC1CC2OC(=O)C3CC(O)CC(=C23)[C@@]12C[C@@H](c1ccoc1)OC2=O (stereo partly drawn)", "target-or-system": "HCT-15 colon", "result": "> 100 µM"}
{"compound": "CC(C)c1ccccc1SC1CC(=O)CC(Sc2ccccc2C(C)C)C12O[C@H](c1ccccc1)[C@@H](c1ccccc1)O2 (stereo partly drawn)", "target-or-system": "HCT-15 colon", "result": "> 100 µM"}

// query Assign TGI to the following record: "C=C(C)[C@@H]1CC[C@]2(C(=O)NCCCN)CC[C@]3(C)[C@H](CC[C@@H]4[C@@]5(C)CC[C@H](O)C(C)(C)[C@@H]5CC[C@]43C)[C@@H]12"
// result > 100 µM

###

System: RPMI-8226 leukemia
Experiment: NCI tumour cell line growth inhibition, 48 h
The following molecules are shown together with reported TGI values.

{"molecule": "Oc1ccccc1/C=N/Nc1nnc2c3ccccc3c3ccccc3c2n1", "target-or-system": "RPMI-8226 leukemia", "TGI": "> 100 µM"}
{"molecule": "Cc1nc2sc(CCl)nn2c(=O)c1Cl", "target-or-system": "RPMI-8226 leukemia", "TGI": "24.4 µM"}
{"molecule": "CC1(C)CCC2(C(=O)OC3OC(CO)C(O)C(O)C3O)CC[C@]3(C)C(=CCC4C5(C)CC[C@H](OC6OC(C(=O)O)C(O)C(O)C6O)C(C)(C)C5CCC43C)C2C1 (stereo not given in full)", "target-or-system": "RPMI-8226 leukemia", "TGI": "10.2 µM"}

Please look at the following molecule next.
// query Identify the reported TGI for the following entry. "NS(=O)(=O)c1cc2c(cc1Cl)NC(C(=O)c1cc(=O)c3ccc(O)cc3o1)=NS2(=O)=O"
// result > 100 µM

###

System: M14 melanoma
Test: NCI tumour cell line growth inhibition, 48 h
*1 amine or outer side, *2 acyl side, *3 side chain or, on linkers, in order; H or OH if unused. Where a SMILES comes first, the peptide text is derived from it. Bridges are numbered along the chain shown (N, C = ends). [ ]: non-standard residue; d: D form. The star is where a group is joined. X38 = CC[C@H](C)[C@@H](N[*:1])[C@@H](O)CC(=O)[*:2]; NMeY = CN[C@@H](Cc1ccc(O)cc1)C(=O)O; dNMeL = CN[C@H](CC(C)C)C(=O)O; Hiv = CC(C)[C@H](O)C(=O)O; Pyruvoyl = CC(=O)C(=O)*
recorded-endpoint: TGI

Guide cases for TGI, answers given:
{"compound": "Cc1nc2sc(CCl)nn2c(=O)c1Cl", "TGI": "26.9 µM"}
{"compound": "O=c1cc(CNc2cc(F)cc(F)c2)c2ccc(I)cc2[nH]1", "TGI": "> 100 µM"}
{"compound": "Cc1occc1C(=S)Nc1ccc(Cl)c(C(=O)OCC(F)(F)F)c1", "TGI": "> 100 µM"}
{"compound": "O=c1c2cc(S(=O)(=O)Nc3ccccc3Cl)ccc2ncn1NS(=O)(=O)c1ccc(Br)cc1", "TGI": "> 37.5 µM"}
{"compound": "Cn1c(=O)c2[nH]c(/N=N/N3CCN(CCO)CC3)nc2n(C)c1=O", "TGI": "> 100 µM"}
{"compound": "CCN=C1C=CC(=C(c2ccc(N(C)C)cc2)c2ccc(N(C)C)cc2)c2ccccc21", "TGI": "0.372 µM"}

// query Item "COc1cccc(C2=C(c3cn(C)c4ccccc34)C(=O)NC2=O)c1" : provide TGI
// result > 25 µM

// query Tell us which TGI value is on record for O=C(CC1Sc2ccccc2NC1=O)Nc1cc(Cl)ccc1Cl (stereo not given)
// result > 100 µM

// query Identify TGI associated with the compound "COC(=O)CCC(=O)N1Cc2cc(C)ccc2N(C(=O)CCC(=O)OC)Cc2cc(C)ccc21"
// result > 100 µM

// query Report measured TGI; entry is CC1(C)CCC2(C(=O)OC3OC(CO)C(O)C(O)C3O)CC[C@]3(C)C(=CCC4C5(C)CC[C@H](OC6OC(C(=O)O)C(O)C(O)C6O)C(C)(C)C5CCC43C)C2C1 (stereo not given in full)
// result 4.33 µM

// query Return TGI (reported value) for this compound: "COc1cc2c(cc1OC)-c1[nH]c3ccc(C#N)cc3c1CC(=O)N2"
// result > 100 µM

// query Read the entry CC(=O)OC1c2ccccc2CC2(OC(C)=O)c3ccccc3C12 (stereo not given) and write its reported TGI.
// result > 100 µM

// query Give TGI for the following compound: CC12CCC(=O)C(O1)C1C(=O)c3cc4ccccc4cc3C(=O)C12 (stereo not given)
// result 53.3 µM

// query For the compound "CCc1nnc(CC)n1NCCCC(=O)O" , report TGI.
// result > 100 µM

// query Return value of TGI for input CC[C@H](C)[C@H]1NC(=O)[C@@H](NC(=O)[C@@H](CC(C)C)N(C)C(=O)[C@@H]2CCCN2C(=O)C(C)=O)[C@@H](C)OC(=O)[C@H](Cc2ccc(OC)cc2)N(C)C(=O)[C@@H]2CCCN2C(=O)[C@H](CC(C)C)NC(=O)[C@H](C(C)C)OC(=O)C[C@@H]1O (Pyruvoyl-P[dNMeL]T[X38][Hiv]LP[NMeY](Me); ester 3-C) , no commentary.
// result 0.0261 µM

###

System: SK-MEL-28 melanoma
Test: NCI tumour cell line growth inhibition, 48 h
recorded-endpoint: TGI

Look over these answered cases.
{"test-smiles": "CCN(CC)c1ccc(/C=C/c2cc(C)c3ccccc3n2)cc1", "result": "> 100 µM"}
{"test-smiles": "O=C(O)c1c[nH]c2c(Sc3ccccc3)nccc2c1=O", "result": "> 100 µM"}
{"test-smiles": "Fc1ccc2[nH]cc(Cc3c[nH]c4ccc(F)cc34)c2c1", "result": "76.7 µM"}
{"test-smiles": "Nc1nc(/C=C\\c2ccc([N+](=O)[O-])o2)nc(N2CCN(c3ccccc3)CC2)n1", "result": "40.5 µM"}

Switching to the query record.
// query Using known records, supply TGI for "Cc1nc2sc(CCl)nn2c(=O)c1Cl"
// result 27.3 µM

###

Tested on: A498 renal
Test: NCI tumour cell line growth inhibition, 48 h; in the data active means GI50 below about 0.43 µM; inactive means the rest
Use one of these outcomes when replying: YES = active, NO = inactive

# count of solved cases: 5
{"compound": "O=S(=O)(c1ccc(NC(=S)NCc2cccnc2)cc1)N1CCCCC1", "class-assignment": "NO"}
{"compound": "CCN=C1C=CC(=C(c2ccc(N(C)C)cc2)c2ccc(N(C)C)cc2)c2ccccc21", "class-assignment": "YES"}
{"compound": "Fc1ccc2[nH]cc(Cc3c[nH]c4ccc(F)cc34)c2c1", "class-assignment": "NO"}
{"compound": "COc1ccc2c(c1)CC[C@@H]1[C@@H]2CC[C@]2(C)C(=O)C3(CCCCC3)C[C@@H]12", "class-assignment": "NO"}
{"compound": "N#CC(C#N)=Cc1ccc(-c2ccc(-c3nc4ccccc4s3)cc2)o1", "class-assignment": "YES"}

// query Please let me know the test result on file for "O=c1cc(CNc2cc(F)cc(F)c2)c2ccc(I)cc2[nH]1" .
// result YES

###

Tested on: 786-0 renal
Assay: NCI tumour cell line growth inhibition, 48 h
recorded-endpoint: TGI (µM)
Lab book: enter the figure in µM, no units written.

These solved cases illustrate the format of a correct answer.
{"compound": "O=C1CSC2(CC(/C=C/c3ccccc3O)=NN2c2cccc(S(=O)(=O)O)c2)N1c1nc2ccccc2s1 (stereo not given)", "recorded-endpoint": "TGI", "numeric-readout": 98.7}
{"compound": "CCOC(=O)c1nc2ccc(C(F)(F)F)cc2nc1NCc1ccc(Cl)c(Cl)c1", "recorded-endpoint": "TGI", "numeric-readout": 46.7}

Consider the record given below.
// query Return TGI for the following compound: O=C(O)C1C(C(=O)O)C2C(=O)C=CC1N2Cc1ccccc1 (stereo not given)
// result 11.7

###

Let's look at some compounds and their measured TGI.
Test system: NCI-H226 lung
Assay: NCI tumour cell line growth inhibition, 48 h

Some solved cases for reference:
{"compound": "O=C(O)C(=C\\c1ccc2c(c1)OCO2)/C(=C/c1ccc2c(c1)OCO2)C(=O)O", "target-or-system": "NCI-H226 lung", "TGI": "> 100 µM"}
{"compound": "CSc1nc2ccccc2c(=O)n1/N=C1\\C(=O)N(CN2CCCCC2)c2ccc(Cl)cc21", "target-or-system": "NCI-H226 lung", "TGI": "> 100 µM"}
{"compound": "CCOC(=O)/C(C)=C\\[C@@]1(C)O[C@@H](C)[C@@](C)(OC(C)=O)[C@@H]1OC(C)=O", "target-or-system": "NCI-H226 lung", "TGI": "> 100 µM"}
{"compound": "CC1Oc2cc3c(-c4c(O)cc(O)c5c(O)c6c(cc45)OC(C)C(C)C6=O)c(O)cc(O)c3c(O)c2C(=O)C1C (centres undefined)", "target-or-system": "NCI-H226 lung", "TGI": "0.89 µM"}
{"compound": "O=C(CCn1[nH]c(=O)c(Cl)c(Cl)c1=O)NOCCCc1ccccc1", "target-or-system": "NCI-H226 lung", "TGI": "> 100 µM"}

// query Recall and state the measured TGI for "COc1cc2c(cc1OC)-c1[nH]c3ccc(C#N)cc3c1CC(=O)N2" .
// result > 100 µM

// query Determine from records and report TGI for "O=C1C/C(=C/c2ccc(/C=C3/CC(=O)N(c4cccc(Br)c4)C3=O)cc2)C(=O)N1c1cccc(Br)c1"
// result > 100 µM

// query Name the recorded TGI of the item "COc1cc(Cn2cc3c(c2)-c2oncc2CC3)cc(OC)c1OC" in your answer.
// result > 100 µM

// query Return value of TGI for input O=C(O)C1C(C(=O)O)C2C(=O)C=CC1N2Cc1ccccc1 (centres undefined) , no commentary.
// result 35.8 µM
